Tested on: KM-20L2
experiment: NCI tumour cell line growth inhibition, 48 h
The source made the active and inactive calls. Cut-off read from the data, not from the text of the source: active = GI50 up to about 1.1 µM and inactive = higher.
Recorded GI50, one value per entry.

The molecule listed as CC1=CC(=C(c2ccc(N)c(C)c2)c2ccc(N)c(C)c2)C=CC1=N shows GI50 equal to 3.33 µM (inactive)

For this molecule ( O=C1C(=Cc2ccc(F)cc2)C(=O)c2ccccc21 ), measured GI50 is > 100 µM (inactive)

Just so you know, measured GI50 for CCOC(=O)c1c2ccc(/C=C/c3ccccc3)ccc-2c(C(=O)OCC)c1N came out at > 100 µM (inactive)

The molecule listed as C/C(=C\COc1ccc2ccc(=O)oc2c1)C1=CC(=O)C(C)(C)O1 [GEIPARVARIN] shows GI50 equal to 3.39 µM (inactive)

The recorded GI50 for CCCCc1c2c(nc3c1CCc1cc4cc5c(nc4nc1-3)-c1nc3c(c(CCCC)c1CC5)CCC/C3=C\c1ccccc1)/C(=C/c1ccccc1)CCC2 is > 100 µM (inactive)

* * *

Tested on: CCRF-CEM
experiment: NCI tumour cell line growth inhibition, 48 h
The source made the active and inactive calls. Rule as the data show it: active = GI50 up to about 1.1 µM and inactive = higher.
Field 'call' accepts 1 (active), 0 (inactive)

Please review the entries below; each comes with its answer.
{"compound": "O=C(NNC(=S)Nc1ccccc1)c1csc(NC(=S)NC2CCCCC2)n1", "categoryLabel": 0}
{"compound": "CC(=O)OCC(OC(C)=O)C(OC(C)=O)C(OC(C)=O)C(=O)CNn1c(-c2ccc(C)cc2)nc2ccccc2c1=O (configuration not stated)", "categoryLabel": 0}
{"compound": "Cc1nc2c(nc1C)-c1c(c3c(n1C)C(=O)CCC3)C(=O)C2=O", "categoryLabel": 1}

For CC1C(O)Oc2cc3c(cc2C1c1ccccc1O)OCO3 (configuration not stated) , what call appears in the results of this test?
0

Could you please tell me the result logged for C=C1C(OC(=O)/C=C/c2ccccc2)CC(OC(C)=O)C2(C)C1CC1CC(OC(C)=O)C(C)=C(C(OC(C)=O)C2OC(C)=O)C1(C)C (configuration not stated) in this assay?
0

# fetch the recorded call for Cc1ccc(-c2cc(-c3ccc(Cl)cc3)nc(/N=C3\C(=O)N(CN(C)C)c4ccccc43)n2)cc1 here
0

Recorded call for CCCNC(=O)C(C)(Cl)C(=O)c1ccccc1O (configuration not stated) ?
0

Dear all, I need the recorded test outcome for O=c1c(-c2ccccc2)c(SCCCN2CCCCC2)n(-c2ccccc2)c(=S)n1-c1ccccc1 , thank you.
0

How was COC1=NC(NC2OCC(O)C(O)C2O)=C(NC(C)=O)CN1C (configuration not stated) classified in this test?
0

I would be grateful if you could indicate the recorded call for NC(CCCCNC(=O)CNC(=O)OCc1ccccc1)C(=O)NC(CCCCNC(=O)CNC(=O)OCc1ccccc1)C(=O)NC(CCCCNC(=O)CNC(=O)OCc1ccccc1)C(=O)NC(CCCCNC(=O)CNC(=O)OCc1ccccc1)C(=O)NC(CCCCNC(=O)CNC(=O)OCc1ccccc1)C(=O)NC(CCCCNC(=O)CNC(=O)OCc1ccccc1)C(=O)O (configuration not stated) .
0

Could you please tell me the result logged for Cc1nc2ccc(C(F)(F)F)cc2nc1NCc1ccc(Cl)c(Cl)c1 in this assay?
0

How was COc1cc2cc(C(=O)N3CC(CCl)c4c3cc(O)c3ccccc43)[nH]c2c(OC)c1OC (configuration not stated) classified in this test?
1

Which outcome was entered for the compound CCOC(=O)CSc1nc(-c2ccccc2)c(C#N)c(=O)[nH]1 in this test?
0

What outcome does the record of this test show for NCCc1ccc2oc3cc(=O)c4ccccc4c-3nc2c1 ?
0

Fill in: this test's call for Cc1c2cc(Cl)ccc2n2c(=O)c3ccccc3[nH]c(=O)c12 is ___
0

Assay result, entry C[C@H](c1ccccc1)N1C(=O)[C@@H](OCc2ccccc2)[C@H]1[C@H](COC(=O)COCc1ccccc1)OCc1ccccc1 — outcome?
0

How was CCCCCCCCCCCCCCCCCCOCC(COCCOCC[N+]1(CCCCCC(=O)[O-])CCCC1)Oc1ncccn1 (configuration not stated) classified in this test?
0

* * *

Test system: TK-10
experiment: NCI tumour cell line growth inhibition, 48 h
Calls of active or inactive are those of the source. No stated cut-off is given here; in the data, active = GI50 up to about 1.1 µM and inactive = higher.
propertyMeasured: GI50

Consider the worked cases shown below.
{"compound": "O=C(/C=C/c1ccc(O)c(O)c1)c1cc(O)cc(O)c1", "GI50": "15.3 µM (inactive)"}
{"compound": "CC(OP(=O)(O)O)C(N)C(=O)O (stereo not given)", "GI50": "> 100 µM (inactive)"}
{"compound": "CCOC(=O)C1=C(C)Nc2ccccc2S1", "GI50": "> 100 µM (inactive)"}
{"compound": "COC(=O)[C@H](Cc1ccccc1)NC(=O)CCCCCCC(=O)NO", "GI50": "13.8 µM (inactive)"}

Let's switch to this compound now.
The value of GI50 measured for the compound O=C1C2=Cc3ccccc3OC2(O)Oc2cc(O)ccc21 (stereo not given) turned out to be > 100 µM (inactive)

* * *

Tested on: CAKI-1
experiment: NCI tumour cell line growth inhibition, 48 h
Active and inactive are the calls of the source. Cut-off read from the data, not from the text of the source: active = GI50 up to about 1.1 µM and inactive = higher.
propertyMeasured: GI50

{"molecule": "CN1C(=O)C(O)CC1c1cccc(C(F)(F)F)c1 (stereo not given)", "testedSystem": "CAKI-1", "GI50": "> 100 µM (inactive)"}

Query O=c1[nH]cc(COCC(O)CO)c(=O)[nH]1 (stereo not given) yields GI50 of > 100 µM (inactive)

Quick note, GI50 for C=C1CC(COc2ccc3c(C)cc(=O)oc3c2)(c2ccccc2)OC1=O (stereo not given) landed at 1.64 µM (inactive)

Lookup result for Cc1c(-c2cc(-c3ccccc3)n[nH]c2=O)c2ccccc2n1C ; measured GI50: > 100 µM (inactive)

Data point: CN(C)CCNC(=O)Cn1cnc2cccc([N+](=O)[O-])c2c1=O ; GI50 = > 100 µM (inactive)

The measured GI50 associated with Nc1nc(=O)c(/N=N/c2ccccc2)c(C(=O)O)[nH]1 reads > 100 µM (inactive)

The reported value for O=C(N/C(=C\c1ccc2c(c1)OCO2)c1nc2ccccc2[nH]1)c1ccccc1 in terms of GI50 is 33.6 µM (inactive)

The molecule listed as Nc1nc(=O)c(/N=N/c2ccccc2)c(N)[nH]1 shows GI50 equal to 66.7 µM (inactive)

Memo: c1ccc(SC(Sc2ccccc2)=C2CCC2)cc1 , reported GI50: > 100 µM (inactive)

For this molecule ( COc1cc(/C=C2\C(=O)N(c3ccc(NC(C)=O)cc3)C(c3ccccc3)S2(=O)=O)cc(OC)c1OC (stereo not given) ), measured GI50 is > 100 µM (inactive)

* * *

Test system: SK-MEL-2
experiment: NCI tumour cell line growth inhibition, 48 h
Calls of active or inactive are those of the source. No stated cut-off is given here; in the data, active = GI50 up to about 1.1 µM and inactive = higher.
propertyMeasured: GI50

Worked cases, answers included:
{"compound": "O=C(NC12CC3CC(CC(C3)C1)C2)n1cnc2c(Cl)ncnc21", "GI50": "28.3 µM (inactive)"}
{"compound": "COc1ccc(-c2cn3c(n2)sc2cc(C)ccc23)cc1", "GI50": "14.3 µM (inactive)"}
{"compound": "CC(NC(=N)N)C(=O)O (centres undefined)", "GI50": "> 100 µM (inactive)"}

Measured GI50, CCC12C=CCN3CCC4(c5cc(C(c6ccc(OC)cc6)C6Cc7ccccc7N6)c(OC)cc5N(C)C4C(O)(C(=O)OC)C1O)C32 (centres undefined) : 15.3 µM (inactive)

Record CC(C)N(C(=O)C12C3C4C1(I)C1C2C3(I)C41C(=O)N(C(C)C)C(C)C)C(C)C (centres undefined) . Reported GI50: > 100 µM (inactive)

Lab book: GI50 of Cc1cc(C)nc(NS(=O)(=O)c2ccc(NC(=O)c3ccc4nc5ccccc5c(Nc5ccc(S(N)(=O)=O)cc5)c4c3)cc2)n1 noted as 42.9 µM (inactive)

Briefly, GI50 measured for CC(C)OC(=O)[C@@H]1OC(C)(C)O[C@H]1C(=O)OC(C)C : > 100 µM (inactive)

response.value for CN(CCN(C)C(=O)CCn1cc(F)c(=O)[nH]c1=O)C(=O)CCn1cc(F)c(=O)[nH]c1=O (field: GI50) = > 100 µM (inactive)

Lab note: O=C(N/C(=C\c1ccc2c(c1)OCO2)c1nc2ccccc2[nH]1)c1ccccc1 gave GI50 of 26.4 µM (inactive)

* * *

System: OVCAR-3
experiment: NCI tumour cell line growth inhibition, 48 h
Activity calls are given as the source filed them. No stated cut-off is given here; in the data, active = GI50 up to about 1.1 µM and inactive = higher.
Hi there, use one of these labels in your reply, thanks! 1.0 = active, 0.0 = inactive

{"compound": "Cc1nc2ccc(C(F)(F)F)cc2nc1NCc1ccc(Cl)c(Cl)c1", "categoryLabel": 0.0}

Can you look up the reported call for O=C1/C(=N/O)Cc2c(Br)ccc(Br)c21 for me?
0.0

Test call, this compound: COc1cc2cc(C(=O)N3CC(CCl)c4ccc(N(C)C)cc43)[nH]c2c(OC)c1OC (stereo not given)
1.0

Dear colleague, could you share the recorded outcome for Cc1ccc(C(=O)OC[C@H]2CC[C@@H](n3cc(N(C)C4CCCCC4)c(=O)[nH]c3=O)O2)cc1 when you have a moment?
0.0

State the result this test recorded for COc1ccccc1NC(=O)C1=C(C)NC(C)=C(C(=O)Nc2ccccc2OC)C1c1ccc([N+](=O)[O-])cc1 .
0.0
